Target: human 11β-HSD2 (Homo sapiens)
Construct: The obtained PCR products of about 0.9 kbp, 1.2 kbp, and 0.9 kbp were subcloned into an expression vector pcDNA3.1+/Zeo; expressed in transfected cells
Sequence (P80365 1-405): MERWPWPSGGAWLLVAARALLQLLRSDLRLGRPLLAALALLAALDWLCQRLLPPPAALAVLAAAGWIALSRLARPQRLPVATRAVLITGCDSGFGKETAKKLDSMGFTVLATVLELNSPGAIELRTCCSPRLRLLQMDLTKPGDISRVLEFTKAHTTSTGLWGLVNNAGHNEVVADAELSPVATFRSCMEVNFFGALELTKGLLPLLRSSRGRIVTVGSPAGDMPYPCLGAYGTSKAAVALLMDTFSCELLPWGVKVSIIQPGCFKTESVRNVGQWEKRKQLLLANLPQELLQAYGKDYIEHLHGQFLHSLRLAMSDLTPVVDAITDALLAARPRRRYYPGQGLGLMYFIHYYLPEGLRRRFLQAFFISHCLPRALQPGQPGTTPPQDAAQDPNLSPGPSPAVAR
Assay: Enzyme inhibitory activity, human 11β-HSD2 (lysate of stably expressing HEK293 cells, cortisol by competitive ELISA)
Format: biochemical
Settings: Table 1; human 11β-HSD2, cell lysate, 37° C. for 1 hour; read-out: h HSD2 in vitro assay (IC50 uM)
# reported IC50; entries follow

# MOLECULE, STUDY_SYSTEM, IC50
measured = [
    ("COCOc1ccccc1N1N(C2C3CC4CC(C3)CC2C4)C(=O)C1(C)C (stereo not shown)", "human 11β-HSD2 (Homo sapiens)", "> 30 µM"),
    ("CC1(C)C(=O)N(C2C3CC4CC(C3)CC2C4)N1c1ccccc1Cl (stereo not shown)", "human 11β-HSD2 (Homo sapiens)", "3 to 30 µM"),
    ("CC1(C)C(=O)N(C2C3CC4CC(C3)CC2C4)N1c1ccc(Cl)cc1Cl (stereo not shown)", "human 11β-HSD2 (Homo sapiens)", "3 to 30 µM"),
    ("CC1(C)C(=O)N(C2C3CC4CC(C3)CC2C4)N1c1cccc(Cl)c1Cl (stereo not shown)", "human 11β-HSD2 (Homo sapiens)", "3 to 30 µM"),
]

* * *

Measured IC50 values are reported for all entries that follow.
Target: human 11β-HSD2 (Homo sapiens)
Construct: The obtained PCR products of about 0.9 kbp, 1.2 kbp, and 0.9 kbp were subcloned into an expression vector pcDNA3.1+/Zeo; expressed in transfected cells
Test: Enzyme inhibitory activity, human 11β-HSD2 (lysate of stably expressing HEK293 cells, cortisol by competitive ELISA)
Format: biochemical
Conditions: Table 1; human 11β-HSD2, cell lysate, 37° C. for 1 hour; read-out: h HSD2 in vitro assay (IC50 uM)

# COMPOUND, STUDY_SYSTEM, IC50
records = [
    ("CC1(C)C(=O)N(C2CCCCCCC2)N1Cc1cc(F)ccc1Cl [Example 77]", "human 11β-HSD2 (Homo sapiens)", "2 µM"),
    ("COc1ccccc1N1N([C@H]2C3CC4CC2C[C@](Cl)(C4)C3)C(=O)C1(C)C [Example 250]", "human 11β-HSD2 (Homo sapiens)", "> 30 µM"),
    ("CC1(C)C(=O)N(C2C3CC4CC(C3)CC2C4)N1c1ccccc1[N+](=O)[O-] (stereo not drawn) [Example 188]", "human 11β-HSD2 (Homo sapiens)", "> 30 µM"),
    ("Cc1ccc(C)c(C(=O)N2N(C3C4CC5CC(C4)CC3C5)C(=O)C2(C)C)c1 (stereo not drawn) [Example 161]", "human 11β-HSD2 (Homo sapiens)", "> 30 µM"),
    ("CC1(C)C(=O)N(C2CCCCCCC2)N1c1cccc(Cl)c1Cl [Example 221]", "human 11β-HSD2 (Homo sapiens)", "3 to 30 µM"),
    ("CC1(C)C(=O)N(C2C3CC4CC(C3)CC2C4)N1C(=O)c1cccc2ccccc12 (stereo not drawn) [Example 141]", "human 11β-HSD2 (Homo sapiens)", "14 µM"),
]

The measured values listed here are drawn from patent US8252781B2.
